experimentDescription: protein stability index of a GFP-peptide fusion (GPS, HEK-293T) (PSI 1-6); higher = more stable;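 also: 24-mer peptide tiles fused after GFP, lentivirally expressed, FACS-sorted into six equal bins by GFP/DsRed ratio, decoded by Illumina sequencing, PSI is the read-weighted mean bin number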
conditionDetails: treatment: DMSO; c terminus: a fixed tail appended
reportedProperty: protein stability index

residuestring="QEDSGLRDHSVRVLISNHVTPFDH [AUP1]" reportedproperty="protein stability index" assayresult=3.9
residuestring="SGSGSGPGCGSVPGSGSGPGPGSG [SPAG8]" reportedproperty="protein stability index" assayresult=5.08
residuestring="LGSAGAQYEKYSFRGFPPEDLMPL [P3H4]" reportedproperty="protein stability index" assayresult=2.87
residuestring="GNDSFQLQVTEDVNSSIKTFFCPN [CLCN6]" reportedproperty="protein stability index" assayresult=3.54
residuestring="DRENGSDNLPSSAGSGDKPLSDPA [TPD52L2]" reportedproperty="protein stability index" assayresult=5.49
residuestring="RYVFEAVIRWIAHDTEIRKVHMKD [GAN]" reportedproperty="protein stability index" assayresult=2.74
residuestring="LAHMIAECKKLFQVPEEMSRCRNS [DLC1]" reportedproperty="protein stability index" assayresult=2.67
residuestring="SEMAEDLCKIGSERSLVLDRLASN [IKZF1]" reportedproperty="protein stability index" assayresult=4.56
residuestring="EGNLAETENRYCVQLSQIQGLIGS [KRT17]" reportedproperty="protein stability index" assayresult=3.63
residuestring="NAGQSDNRSLAEACSEGDVNAVRK [ANKRD17]" reportedproperty="protein stability index" assayresult=5.56
residuestring="QHNLCRKCASDIFQASNPYLPTRG [TRIM55]" reportedproperty="protein stability index" assayresult=2.29
residuestring="AIFSAPAFPAAVSSMKKFCRPLLP [PSD2]" reportedproperty="protein stability index" assayresult=2.58
residuestring="LPVNSPMNKGDTEVMKCIVEVISD [CHGA]" reportedproperty="protein stability index" assayresult=3.22
residuestring="ATPGGGTGEAARPHKGLNLHPLLS [PCDHGC5]" reportedproperty="protein stability index" assayresult=3.74
residuestring="LKFDMKYMNFRVKACNKAVAGEFS [FSD1]" reportedproperty="protein stability index" assayresult=2.34
residuestring="VCQKLLLDAMNYHLMPFRQHCRQS [KLHL14]" reportedproperty="protein stability index" assayresult=3
residuestring="SLCSLLESQSTSLRGSYNSLHDGS [LURAP1L]" reportedproperty="protein stability index" assayresult=2.8
residuestring="RAVVEAVHRLDLILCNKTAYQEVF [SMG5]" reportedproperty="protein stability index" assayresult=2.92
residuestring="AQNACSEHGATLAVIDSEKDMNFL [CD69]" reportedproperty="protein stability index" assayresult=4.62
residuestring="GWYRPPFSRVVHLYRNGKDQDGDQ [MOG]" reportedproperty="protein stability index" assayresult=3.67
residuestring="EANEEFALRVQQLVAKELGQTGTR [AUP1]" reportedproperty="protein stability index" assayresult=3.87
residuestring="PSSPGRFTKETTQKNFNNLYGTKG [TRIM29]" reportedproperty="protein stability index" assayresult=4.2
residuestring="SDVICDFPFQAMVQFHRHHGQEGS [GMPPB]" reportedproperty="protein stability index" assayresult=3.12
residuestring="KEQHLWDVDLLDSKVIEILDSQTE [DLC1]" reportedproperty="protein stability index" assayresult=4.79
residuestring="AHHRSGAQVFPESPESESDHEHEE [GNAS]" reportedproperty="protein stability index" assayresult=5.63
residuestring="APRLLKREPDWGDGDAPGSLLPAQ [CEBPD]" reportedproperty="protein stability index" assayresult=4.87
residuestring="QPPLTYKRFQTLISKMEPLEIPVE [CRY1]" reportedproperty="protein stability index" assayresult=2.97
